Origin of the recorded values: ChEMBL document CHEMBL4229561

- Study System: Acetylcholinesterase (Electrophorus electricus)
- Sequence (O42275 whole entry): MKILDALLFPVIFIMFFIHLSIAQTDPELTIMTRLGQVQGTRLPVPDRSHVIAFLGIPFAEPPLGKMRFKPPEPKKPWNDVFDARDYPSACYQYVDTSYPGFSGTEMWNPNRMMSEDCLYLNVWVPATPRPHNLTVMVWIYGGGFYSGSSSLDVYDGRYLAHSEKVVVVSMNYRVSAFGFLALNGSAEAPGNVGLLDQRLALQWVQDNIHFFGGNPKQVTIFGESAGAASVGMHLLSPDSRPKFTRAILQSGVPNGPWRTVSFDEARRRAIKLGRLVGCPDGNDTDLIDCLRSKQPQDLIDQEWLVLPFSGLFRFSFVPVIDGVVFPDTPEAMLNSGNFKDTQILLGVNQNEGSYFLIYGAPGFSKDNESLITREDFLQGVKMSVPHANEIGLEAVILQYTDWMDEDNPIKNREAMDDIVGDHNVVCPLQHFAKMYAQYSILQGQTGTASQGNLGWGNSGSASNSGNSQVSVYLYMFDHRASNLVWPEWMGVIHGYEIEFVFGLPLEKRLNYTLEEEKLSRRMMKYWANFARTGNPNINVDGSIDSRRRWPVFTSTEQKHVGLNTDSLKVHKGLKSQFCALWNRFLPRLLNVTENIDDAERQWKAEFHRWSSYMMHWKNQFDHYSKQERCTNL
Please provide measured IC50 for the entries that follow.
Numbers only, in µM.

Solved entries:
Cc1ccc(C[n+]2cccc(Cn3c4ccccc4c4ccccc43)c2)cc1
23.1
Fc1ccc(C[n+]2cccc(Cn3c4ccccc4c4ccccc43)c2)cc1
29.4
Cc1cccc(C[n+]2cccc(Cn3c4ccccc4c4ccccc43)c2)c1
66
Cc1cccc(C[n+]2ccc(Cn3c4ccccc4c4ccccc43)cc2)c1
17.5
Fc1cccc(C[n+]2ccc(Cn3c4ccccc4c4ccccc43)cc2)c1
21.3
Fc1ccccc1C[n+]1ccc(Cn2c3ccccc3c3ccccc32)cc1
12.7
Cc1ccccc1C[n+]1ccc(Cn2c3ccccc3c3ccccc32)cc1
11.9
Cc1ccccc1C[n+]1cccc(Cn2c3ccccc3c3ccccc32)c1
52.5
Clc1ccccc1C[n+]1ccc(Cn2c3ccccc3c3ccccc32)cc1
6.8
c1ccc(C[n+]2ccc(Cn3c4ccccc4c4ccccc43)cc2)cc1
12.8

Could you report IC50 for every entry in the following list?
1. Clc1cccc(C[n+]2ccc(Cn3c4ccccc4c4ccccc43)cc2)c1
2. Fc1ccc(C[n+]2ccc(Cn3c4ccccc4c4ccccc43)cc2)cc1
3. Clc1cccc(C[n+]2cccc(Cn3c4ccccc4c4ccccc43)c2)c1
4. c1ccc(C[n+]2cccc(Cn3c4ccccc4c4ccccc43)c2)cc1

[9.3, 18.8, 32.8, 61.9]

Could you report IC50 for every entry in the following list?
1. Clc1ccc(C[n+]2ccc(Cn3c4ccccc4c4ccccc43)cc2)cc1
2. Cc1ccc(C[n+]2ccc(Cn3c4ccccc4c4ccccc43)cc2)cc1
3. Clc1ccc(C[n+]2cccc(Cn3c4ccccc4c4ccccc43)c2)cc1.[Cl-]

1. 19
2. 15.6
3. 20
